B1: TRIM43 (parent)
chain: NNSWIRKNSTMVNSEDIFLLLCLK

variants of: B1; assay: protein stability index of a GFP-peptide fusion (GPS, HEK-293T) (PSI 1-6); higher = more stable; conditions: c terminus: a fixed tail appended;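 further: lentivirally expressed fusions sorted by FACS into six bins by GFP to DsRed ratio, PSI derived from sequencing read proportions per bin multiplied by bin number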
I'd be grateful if you could share measured protein stability index for these entries.
Please reply with the number alone, leaving off any unit.

Exercise: Param item = "NNSWIRKNSTMLNSEDIFLLLCLK" ; retrieve measured protein stability index.
Key: 3.58

Exercise: Another: "NNSWIRKNSTMVNSESIFLLLCLK"
Key: 1.7

Exercise: Entry to check: "NNSWIRKNSTMVNSEDKFLLLCLK"
Key: 2.62

Exercise: Then "NNSWIRKHSTMVNSEDIFLLLCLK" ?
Key: 1.79

Exercise: Field entry: "KNSWIRKNSTMVNSEDIFLLLCLK"
Key: 3.25

Exercise: And for "NNSWIRKNSTMVNSGDIFLLLCLK" ?
Key: 2.29

Exercise: Continue with "NNSWIRKNSTMVMSEDIFLLLCLK"
Key: 3.59

Exercise: Ok, now "NNSWIRKNPTMVNSEDIFLLLCLK"
Key: 3.63

Exercise: "NNSWIRKNSTAVNSEDIFLLLCLK" , same question.
Key: 2.1

Exercise: Input "NNSWIRKNSTMVNSEDIFLLLCLY"
Key: 3.18

Exercise: For "NCSWIRKNSTMVNSEDIFLLLCLK" then?
Key: 2.89

Exercise: // same read-out, input: "NNSWIRKNSKMVNSEDIFLLLCLK"
Key: 3.25

Exercise: How about "NNSWIRTNSTMVNSEDIFLLLCLK" ?
Key: 2.16

Exercise: Same question, "NNSWIRCNSTMVNSEDIFLLLCLK" this time
Key: 2.73

Exercise: What about "NNSWIRKNSTMVNSEDITLLLCLK" ?
Key: 1.83

Exercise: Moving on to the next variant: "NNSWIRKVSTMVNSEDIFLLLCLK"
Key: 1.94

Exercise: Another variant: "NNSTIRKNSTMVNSEDIFLLLCLK"
Key: 2.88

Exercise: Follow-up item: "NNSWIRKNSTMVNSEDIFLVLCLK"
Key: 2.57

Exercise: Please give the result for "NNSWIRKNSTWVNSEDIFLLLCLK" too.
Key: 2.44

Exercise: Proceed to "NNSWIRKNSTMVNSEGIFLLLCLK"
Key: 2.5

Exercise: And "NNSWIRKNSTMVNSEDIFLQLCLK" ?
Key: 3.05

Exercise: And then "NPSWIRKNSTMVNSEDIFLLLCLK" , what is it?
Key: 2.24

Numbers sourced from the supplement of paper PMC10567573.
